Test system: [^3H]dUMP-labelled DNA
Assay: Kinetic parameters on uracil substrate
Assay type: biochemical
Details: U-ds substrate
Experimental endpoint: Km (nM)
The response must be a number in nM with no trailing unit.

The reported value for Tyr147Phe: human UDG (UNGΔ84) mutant with Tyr147 replaced by Phe (protein) MGVFCLGPWGLGRKLRTPGKGPLQLLSRLCGDHLQAIPAKKAPAGQEEPGTPPSSPLSAEQLDRIQRNKAAALLRLAARNVPVGFGESWKKHLSGEFGKPYFIKLMGFVAEERKHYTVYPPPHQVFTWTQMCDIKDVKVVILGQDPFHGPNQAHGLCFSVQRPVPPPPSLENIYKELSTDIEDFVHPGHGDLSGWAKQGVLLLNAVLTVRAHQANSHKERGWEQFTDAVVSWLNQNSNGLVFLLWGSYAQKKGSAIDRKRHHVLQTAHPSPLSVYRGFFGCRHFSKTNELLQKSGKKPIDWKEL in terms of Km is 160
